In this section we review reported protein stability index values for a set of variants.
B1: WEE1 (parent)
chain: INPFTPDSLLLHSSGQCRRRKRTY

Variants of: B1
experimental-details: protein stability index of a GFP-peptide fusion (GPS, HEK-293T) (PSI 1-6); higher = more stable;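 further: lentivirally expressed fusions sorted by FACS into six bins by GFP to DsRed ratio, PSI derived from sequencing read proportions per bin multiplied by bin number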
condition-info: c terminus: a fixed tail appended
assay-endpoint: protein stability index

>>> print(df.to_string())
                    sequence  reported_measurement
 0  INPFTPDSLLLHSSGQFRRRKRTY                  3.06
 1  INPFTPDSLLTHSSGQCRRRKRTY                  3.54
 2  INPFTPDSLLLHSSGDCRRRKRTY                  3.45
 3  INPFTPVSLLLHSSGQCRRRKRTY                  2.63
 4  INQFTPDSLLLHSSGQCRRRKRTY                  3.35
 5  INPFTPDSLLLHSAGQCRRRKRTY                   3.3
 6  INPFFPDSLLLHSSGQCRRRKRTY                  2.67
 7  IYPFTPDSLLLHSSGQCRRRKRTY                  2.55
 8  INPFTPDSRLLHSSGQCRRRKRTY                  3.74
 9  INPFTPDSLLLHSSGKCRRRKRTY                  3.69
10  INPFTPDSLLLHSSGQCRRRKRIY                  2.78
11  INPFTPDSLLLHSSGQCRRRKRWY                  2.79
12  INPFTPDSLLLKSSGQCRRRKRTY                  3.54
13  INCFTPDSLLLHSSGQCRRRKRTY                  3.41
14  INPFTPDSLLLHCSGQCRRRKRTY                  2.21
15  INPFTPNSLLLHSSGQCRRRKRTY                  2.41
16  PNPFTPDSLLLHSSGQCRRRKRTY                  4.36
17  ANPFTPDSLLLHSSGQCRRRKRTY                  4.07
18  ILPFTPDSLLLHSSGQCRRRKRTY                  2.37
19  INPFTPDSLLLHSQGQCRRRKRTY                  3.89
20  INPDTPDSLLLHSSGQCRRRKRTY                  3.99
21  INPFCPDSLLLHSSGQCRRRKRTY                  2.87
22  INPFTPDSLLLHSSGQCRDRKRTY                  3.52
23  INPRTPDSLLLHSSGQCRRRKRTY                  3.77
24  INPFTPDSLLLHRSGQCRRRKRTY                  3.12
25  INPSTPDSLLLHSSGQCRRRKRTY                  4.18
26  INPFTPDSLLLHSSVQCRRRKRTY                  2.79
27  YNPFTPDSLLLHSSGQCRRRKRTY                  3.05
28  INPFTPDSLLLHSGGQCRRRKRTY                  2.82
29  INPFTPDSLLLHSSGQCRRRKATY                  3.67
30  INPFTPDSLLLHSSGQCRRNKRTY                  3.45
31  HNPFTPDSLLLHSSGQCRRRKRTY                  3.89
32  INPFTPDSLLLHSKGQCRRRKRTY                  2.98
33  INPFTPDSLLLHSSGPCRRRKRTY                  3.92
34  INPFTPDTLLLHSSGQCRRRKRTY                  2.81
35  INPFWPDSLLLHSSGQCRRRKRTY                  2.51
36  INPFTPDSLFLHSSGQCRRRKRTY                  3.42
37  INGFTPDSLLLHSSGQCRRRKRTY                  3.11
38  INPFTPDSLLLHSSGQKRRRKRTY                  4.12
39  INPFTPDSLLLHSSGQCRRRKQTY                  3.19
40  INIFTPDSLLLHSSGQCRRRKRTY                  2.69
41  INPFTPDSLLLHSSGYCRRRKRTY                  3.52
42  INPFTPDSGLLHSSGQCRRRKRTY                  4.28
43  INPFTPDSLLLHSSGQCRMRKRTY                  2.91
44  INPFTPDSLLLHSSGQCRRRRRTY                  3.11
45  INPFTPDSLLLHSSGQCRRRKMTY                  3.08
46  INPFTPDSLLLHSSGQGRRRKRTY                  3.69
47  INPFTPDSLLLHSSGQCRRRKRTG                  4.07
48  INPFTPDDLLLHSSGQCRRRKRTY                     4
49  INPFTPDSLLLTSSGQCRRRKRTY                  3.45
50  INPFTKDSLLLHSSGQCRRRKRTY                  3.26
51  INPFQPDSLLLHSSGQCRRRKRTY                  3.78
52  INPFTPDSLLLHSSGQCRRTKRTY                  3.32
53  INPFTPDSLLLHSSGQCRRRWRTY                   2.4
54  INPFTPDSCLLHSSGQCRRRKRTY                  3.35
55  INLFTPDSLLLHSSGQCRRRKRTY                  2.61
56  INPFTPDSLLLHLSGQCRRRKRTY                  2.64
57  INPFTPDSLLLHSSGQCRRRKRDY                  4.11
58  INPFTPDSNLLHSSGQCRRRKRTY                  3.83
59  INPFPPDSLLLHSSGQCRRRKRTY                  2.95
60  INPFTPDSLLLHSSGQCYRRKRTY                  3.58
61  INPFTPDSLLLHSSGQCRRRKRPY                  3.26
62  INPFTPDSLLLHSSGQCMRRKRTY                  2.81
63  INPFTPDSLLLHSSGQCRRRKRTA                  4.33
64  ISPFTPDSLLLHSSGQCRRRKRTY                  3.54
65  INPFTPDSLLLHSPGQCRRRKRTY                  3.54
66  INPFTHDSLLLHSSGQCRRRKRTY                  3.18
67  INPFTPDSLLLHSSGQCRRDKRTY                  3.12
68  INPFTPDWLLLHSSGQCRRRKRTY                   3.5
69  INPFTPDSLLLHSSGQCRRMKRTY                  2.85
70  INPFTPDSLLLHSSGQCRRRHRTY                  3.38
71  INPQTPDSLLLHSSGQCRRRKRTY                  4.22
72  INPFTSDSLLLHSSGQCRRRKRTY                  3.61
73  INPFTPDSLLLHSSGQCRYRKRTY                  2.83
74  INPFTPDSLLLPSSGQCRRRKRTY                   3.4
75  INPFTPDSLLLHSSGQNRRRKRTY                  3.85
76  INPFTPDSLLLHSSGMCRRRKRTY                  2.92
77  INPFTRDSLLLHSSGQCRRRKRTY                  3.02
